The measurements presented in this section are drawn from patent US11026944B2.

Test description: Multiple ascending dose study (002 Study): plasma PK
Assay type: in vivo, human
Test parameters: human, oral; plasma at 8 h, Day 1, 50 mg; read-out: C8 Mean(SD)
Readout type: concentration at 8 h

- Molecule: "Cc1ncc(OC[C@@]2(c3cccc(F)c3)C[C@H]2C(=O)Nc2ccc(F)cn2)c(C)n1 [Compound A]"
  Readout type: "concentration at 8 h"
  Result: "38.1 ng/mL"

###

Test description: Crossover study of relative bioavailability of tablet versus capsule (005 Study): plasma PK
Type: in vivo, human
Test parameters: human, plasma, po, 25 mg, single oral 25 mg Tablet, healthy adults; read-out: Cmax Mean(SD)

- Smiles entry: "Cc1ncc(OC[C@@]2(c3cccc(F)c3)C[C@H]2C(=O)Nc2ccc(F)cn2)c(C)n1"
  Cmax, ng/mL: 120

###

Test description: Single dose study (001 Study) Part A: plasma PK of compound A
Assay type: in vivo
Test parameters: human, plasma, po, 200 mg, single oral 200 mg, healthy subjects (Part A); read-out: Cmax Mean(SD)
Readout type: Cmax (ng/mL)

- Compound: "Cc1ncc(OC[C@@]2(c3cccc(F)c3)C[C@H]2C(=O)Nc2ccc(F)cn2)c(C)n1 [Compound A]"
  Result unit: "ng/mL"
  Result number: 431

###

Test description: Single dose study (001 Study) Part A: plasma PK of compound A
Format: in vivo
Test parameters: human, plasma, po, 2.5 mg, single oral 2.5 mg, healthy subjects (Part A); read-out: tmax Median
Readout type: Tmax

- Compound: "Cc1ncc(OC[C@@]2(c3cccc(F)c3)C[C@H]2C(=O)Nc2ccc(F)cn2)c(C)n1 [Compound A]"
  Readout type: "Tmax"
  Result: "1.01 h"

###

Test description: Crossover study of relative bioavailability of tablet versus capsule (005 Study): plasma PK
Assay type: in vivo, human
Test parameters: human, plasma, po, 25 mg, single oral 25 mg Capsule, healthy adults; read-out: tmax (median)

- Smiles entry: "Cc1ncc(OC[C@@]2(c3cccc(F)c3)C[C@H]2C(=O)Nc2ccc(F)cn2)c(C)n1"
  Tmax / h: 1.5

###

Test description: Multiple ascending dose study (002 Study): plasma PK
Type: in vivo, human
Test parameters: human, plasma, oral, 10 mg, Day 14, 10 mg once daily for 14 days; read-out: tmax Median
Method: A total of 48 healthy adult subjects (18 to 55 years) were to be enrolled into 1 of 6 cohorts sequentially in a gradual dose escalation manner, and randomized to receive either compound A or compound A-matched placebo in the evening 30 minutes before habitual bedtime, and after 3 hours fasting, for 14 days. Each cohort was to comprise 6 compound A-treated subjects and 2 placebo-treated subjects. […]
Readout type: Tmax

- Smiles entry: "Cc1ncc(OC[C@@]2(c3cccc(F)c3)C[C@H]2C(=O)Nc2ccc(F)cn2)c(C)n1"
  Readout type: "Tmax"
  Result: "~2 h"

###

Test description: Single dose study (001 Study) Part A: plasma PK of compound A
Assay type: in vivo
Test parameters: human; plasma at 9 h after single oral 1 mg, healthy subjects (Part A); read-out: C9 Mean(SD)
Readout type: concentration at 9 h (ng/mL)

- Compound: "Cc1ncc(OC[C@@]2(c3cccc(F)c3)C[C@H]2C(=O)Nc2ccc(F)cn2)c(C)n1 [Compound A]"
  Result number: 0.384

###

Test description: Single dose study (001 Study) Part A: plasma PK of compound A
Format: in vivo
Test parameters: human, plasma, po, 25 mg, single oral 25 mg, healthy subjects (Part A); read-out: AUC(0-24) Mean(SD)
Readout type: AUC from 0 to 24 h (ng·h/mL)

- Smiles entry: "Cc1ncc(OC[C@@]2(c3cccc(F)c3)C[C@H]2C(=O)Nc2ccc(F)cn2)c(C)n1"
  Result number: 654
